Data provenance: patent US12011444B2

Attribute: IC50
study.target: UniProt P43116
Sequence (P43116 whole entry): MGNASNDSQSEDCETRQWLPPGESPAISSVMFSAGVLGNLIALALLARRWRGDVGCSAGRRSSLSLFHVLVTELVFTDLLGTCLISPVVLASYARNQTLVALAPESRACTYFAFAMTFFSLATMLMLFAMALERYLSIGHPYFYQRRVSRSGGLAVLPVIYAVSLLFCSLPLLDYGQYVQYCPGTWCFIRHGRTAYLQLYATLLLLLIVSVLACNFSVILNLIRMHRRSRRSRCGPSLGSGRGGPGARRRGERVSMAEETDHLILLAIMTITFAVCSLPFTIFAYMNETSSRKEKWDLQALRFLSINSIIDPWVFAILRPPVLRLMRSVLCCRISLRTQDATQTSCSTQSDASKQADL
protocol.details: hEP2 b-arrestin assay (PathHunter HEK 293 PTGER2 b-arrestin cells)
Assay type: cell-based
reported.conditions: hEP2 b-arrestin assay (values without asterisk)
quantity: IC50

In [3]: df
Out[3]:
                                    molecule  assay_value
 0  COC(=O)c1ccc2cc(-c3cc(NCCn4c(C#N)cc5c(OC)ccc(F)c54)ncn3)[nH]c2c1 [Example 959]         3 nM
 1  COc1cc(F)cc2c1cc(C)n2CCNc1cc(-c2ccc(C(=O)O)c(OCC(F)(F)F)c2)ncn1 [Example 845]         7 nM
 2  COc1ccc(F)c2c1cc(C#N)n2CCNc1cc(-c2ccc(C(=O)O)c(OCC(C)C)c2)ncn1 [Example 949]         7 nM
 3  COc1ccc(F)c2c1cc(C#N)n2CCNc1cc(-c2cc(Cl)c(C(=O)O)c(OCC(C)C)c2)ncn1 [Example 913]        13 nM
 4  N#Cc1cc2c(Cl)cc(F)c(F)c2n1CCNc1cc(-c2cc(C(F)(F)F)c(C(=O)O)s2)ncn1 [Example 912]         4 nM
 5  CCCCOc1cc(-c2cc(NCCn3c(C#N)cc4c(OC)ccc(F)c43)ncn2)ccc1C(=O)O [Example 872]        12 nM
 6  CCOc1cc(-c2cc(NCCn3c(C)cc4c(OC)ccc(F)c43)ncn2)sc1CCC(=O)O [Example 1015]        15 nM
 7  CCOc1cc(-c2cc(NCCn3c(C)cc4c(OC)ccc(F)c43)ncn2)sc1-c1nnn[nH]1 [Example 1051]         2 nM
 8  CCNc1csc(-c2cc(NCCn3c(C)cc4c(C)ccc(F)c43)ncn2)c1 [Example 1068]        10 nM
 9  CCOc1cc(-c2cc(NCCn3c(C#N)cc4c(OC)ccc(F)c43)ncn2)ccc1CCC(=O)O [Example 924]       224 nM
10  CCOc1cc(-c2cc(NCCn3c(C#N)cc4c(OC)ccc(F)c43)ncn2)ccc1CC(=O)O [Example 873]        77 nM
11  CCOc1cc(-c2cc(NCCn3c(C#N)cc4c(OC)ccc(F)c43)ncn2)sc1C(=O)NO [Example 1030]        15 nM
12  CCOc1cc(-c2cc(NCCn3c(C)cc4c(OC)ccc(F)c43)ncn2)ccc1-c1ncco1 [Example 842]        13 nM
13  CCOc1cc(-c2cc(NCCn3c(C#N)cc4c(OC)ccc(F)c43)ncn2)ccc1-c1cnn[nH]1 [Example 930]         4 nM
14  CCOc1cc(-c2cc(NCCn3c(C#N)cc4c(OC)ccc(F)c43)ncn2)sc1C(=O)O [Example 805]         4 nM
15  COc1ccc(F)c2c1cc(C)n2CCNc1cc(-c2cc(OCC(F)(F)F)c(C(=O)O)s2)ncn1 [Example 832]         5 nM
16  CCOc1cc(-c2cc(NCCn3c(C#N)cc4c(Cl)cc(F)c(F)c43)ncn2)ccc1OCC(=O)O [Example 914]        32 nM
17  CCCOc1cc(-c2cc(NCCn3c(C#N)cc4c(OC)ccc(F)c43)ncn2)ccc1CC(=O)O [Example 833]        62 nM
18  CCOc1cc(-c2cc(NCCn3c(C#N)cc4c(C)c(F)c(F)cc43)ncn2)ccc1OCC(=O)O [Example 893]        42 nM
19  CCOc1cc(OCCC(=O)O)cc(-c2cc(NCCn3c(C#N)cc4c(OC)ccc(F)c43)ncn2)c1 [Example 926]         4 nM
20  CCOc1cc(-c2cc(NCCn3c(C#N)cc4c(C)ccc(F)c43)ncn2)sc1C(=O)O [Example 891]         6 nM
21  CCOc1cc(-c2cc(NCCn3c(C#N)cc4c(C)c(F)c(F)cc43)ncn2)sc1C(=O)O [Example 890]         2 nM
22  CCOc1cc(-c2cc(NCCn3c(C#N)cc4c(OC)ccc(F)c43)ncn2)sc1C(=O)NCCOC [Example 1028]         9 nM
23  CCSc1cc(-c2cc(NCCn3c(C#N)cc4c(OC)ccc(F)c43)ncn2)ccc1C(=O)O [Example 953]         5 nM
24  CCN(C=O)c1csc(-c2cc(NCCn3c(C)cc4c(OC)ccc(F)c43)ncn2)c1 [Example 1071]        23 nM
25  COc1cc(Cl)cc2c1cc(C)n2CCNc1cc(-c2cc(OC(C)C)c(C(=O)O)s2)ncn1 [Example 869]         2 nM
26  N#Cc1cc2c(Cl)cccc2n1CCNc1cc(-c2cc(F)c(C(=O)O)s2)ncn1 [Example 903]         4 nM
27  CCOc1cc(-c2cc(NCCn3c(C)cc4c(OC)ccc(F)c43)ncn2)sc1NC=O [Example 1072]         3 nM
28  CCOc1cc(-c2cc(NCCn3c(C#N)cc4c(C)c(F)cc(F)c43)ncn2)sc1C(=O)O [Example 940]        10 nM
29  COc1ccc(F)c2c1cc(C)n2CCNc1cc(-c2nc(CC(C)C)c(C(=O)O)s2)ncn1 [Example 1036]        24 nM
30  N#Cc1c(F)c2ccccc2n1CCNc1cc(-c2cc(F)c(C(=O)O)s2)ncn1 [Example 846]        24 nM
